# Test system: DLD-1
# Method: Inhibition of proteasome activity in human DLD1 cells expressing 4-ubiquitin luciferase reporter protein assessed increase of luciferase signal at 10 uM after 7 hrs relative to control
Respond with Met for fold change (FC) values of 3 and above, Not met for values below.

Worked cases, answers included:
# Molecule, Category
data = [
    ("CC(C)=CC(=O)C[C@@H](C)[C@H]1CC[C@@]2(C)[C@@H]3CC[C@H]4[C@](C)(C(=O)O[C@@H]5O[C@@H](C)[C@H](O)[C@@H](O)[C@H]5O)[C@@H](O)CC[C@@]45C[C@@]35CC[C@]12C", "Not met"),
    ("C=C(C(=O)[C@H](O)[C@@H](C)[C@H]1[C@@H](OC(C)=O)C[C@@]2(C)[C@@H]3CC[C@H]4[C@H](C)C(=O)C=C[C@@]45C[C@@]35CC[C@]12C)[C@@H](C)CO", "Not met"),
    ("CC(=O)O[C@H]1C[C@@]2(C)[C@@H]3CC[C@H]4[C@H](C)C(=O)C=C[C@@]45C[C@@]35CC[C@]2(C)[C@H]1[C@H](C)[C@@H](O)C(=O)C=C(C)C", "Met"),
    ("C=C(C(=O)[C@H](OC(C)=O)[C@@H](C)[C@H]1[C@@H](OC(C)=O)C[C@@]2(C)[C@@H]3CC[C@H]4[C@H](C)C(=O)C=C[C@@]45C[C@@]35CC[C@]12CO)[C@@H](C)CO", "Not met"),
    ("C=C(C(=O)[C@H](OC(C)=O)[C@@H](C)[C@H]1[C@@H](OC(C)=O)C[C@@]2(C)[C@@H]3CC[C@H]4[C@H](C)C(=O)[C@H](O)[C@H]5C[C@]54C3=CC[C@]12C)[C@@H](C)CO", "Met"),
]

As a next step, examine the molecule that follows.
Reported fold change (FC) at or above 3? `C=C(C(=O)[C@H](OC(C)=O)[C@@H](C)[C@H]1[C@@H](OC(C)=O)C[C@@]2(C)[C@@H]3CC[C@H]4[C@H](C)C(=O)C=C[C@]45C[C@]35CC[C@]12C)[C@@H](C)CO` Met

###

Please go through the items and note down their fold change (FC).
# System: DLD-1
# Method: Inhibition of proteasome activity in human DLD1 cells expressing 4-ubiquitin luciferase reporter protein assessed increase of luciferase signal at 10 uM after 7 hrs relative to control
Numbers only.

# Molecule, Number
records = [
    ("C=C(C(=O)[C@H](O)[C@@H](C)[C@H]1[C@@H](OC(C)=O)C[C@@]2(C)[C@@H]3CC[C@H]4[C@H](C)C(=O)C[C@H](O)[C@@]45C[C@@]35CC[C@]12C)[C@@H](C)CO", 74),
    ("C=C(C(=O)[C@H](OC(C)=O)[C@@H](C)[C@H]1[C@@H](OC(C)=O)C[C@@]2(C)[C@@H]3CC[C@H]4[C@H](C)C(=O)C=C[C@@]45C[C@@]35CC[C@]12C)[C@@H](C)CO", 4.4),
]

Dear colleague, could you please provide fold change (FC) for the molecules listed below?
1. CC(=O)O[C@H]1C[C@@]2(C)[C@@H]3CC[C@H]4[C@H](C)C(=O)C=C[C@@]45C[C@@]35CC[C@]2(C)[C@H]1[C@H](C)[C@@H](OC(C)=O)C(=O)C=C(C)C
2. C=C(C(=O)[C@H](OC(C)=O)[C@@H](C)[C@H]1[C@@H](OC(C)=O)C[C@@]2(C)[C@@H]3CC[C@H]4[C@H](C)C(=O)C=C[C@@]45C[C@@]35CC[C@]12C)[C@@H](C)C=O
3. C=C(C(=O)[C@H](OC(C)=O)[C@@H](C)[C@H]1[C@@H](OC(C)=O)C[C@@]2(C)[C@@H]3[C@H]4O[C@H]4[C@H]4[C@H](C)C(=O)C=C[C@@]45C[C@@]35CC[C@]12C)[C@@H](C)CO
4. C=C(C(=O)[C@H](OC(C)=O)[C@@H](C)[C@H]1[C@@H](OC(C)=O)C[C@@]2(C)[C@@H]3CC[C@H]4[C@H](C)C(=O)C=C[C@@]45C[C@@]35CC[C@]12C)C(C)C
5. C=C(C(=O)[C@H](OC(C)=O)[C@@H](C)[C@H]1[C@@H](OC(C)=O)C[C@@]2(C)[C@@H]3CC[C@H]4[C@H](C)C(=O)C=C[C@@]45C[C@@]35CC[C@]12C)[C@H](C)CO
6. C=C(C(=O)C[C@@H](C)[C@H]1[C@@H](OC(C)=O)C[C@@]2(C)[C@@H]3CC[C@H]4[C@](C)(C(=O)O)[C@@H](O)CC[C@@]45C[C@@]35CC[C@]12C)C(C)CO (stereo not given in full)
7. C=C(C(=O)[C@H](O)[C@@H](C)[C@H]1[C@@H](OC(C)=O)C[C@@]2(C)[C@@H]3CC[C@H]4[C@H](C)C(=O)CC[C@@]45C[C@@]35CC[C@]12C)[C@@H](C)CO
8. C=C(C(=O)C[C@@H](C)[C@H]1CC[C@@]2(C)[C@@H]3CC[C@H]4[C@](C)(C(=O)O[C@@H]5O[C@@H](C)[C@H](O)[C@@H](O)[C@H]5O)[C@@H](O)CC[C@@]45C[C@@]35CC[C@]12C)C(C)C

[44, 31, 15, 19, 60, 2.8, 77, 1.1]

###

# Test system: DLD-1
# Method: Inhibition of proteasome activity in human DLD1 cells expressing 4-ubiquitin luciferase reporter protein assessed increase of luciferase signal at 5 uM after 7 hrs relative to control
Please go through the items and note down their fold change (FC).
Answers are plain numbers.

# Smi, fold change (FC)
rows = [
    ("C=C(C(=O)[C@H](O)[C@@H](C)[C@H]1[C@@H](OC(C)=O)C[C@@]2(C)[C@@H]3CC[C@H]4[C@H](C)C(=O)C=C[C@@]45C[C@@]35CC[C@]12C)[C@@H](C)CO", 28),
    ("C=C(C(=O)[C@H](O)[C@@H](C)[C@H]1[C@@H](OC(C)=O)C[C@@]2(C)[C@@H]3C[C@@H](O)[C@H]4[C@H](C)C(=O)C=C[C@@]45C[C@@]35CC[C@]12C)[C@@H](C)CO", 35),
]

Shift focus to the following entry.
Entry `C=C(C(=O)[C@H](OC(C)=O)[C@@H](C)[C@H]1[C@@H](OC(C)=O)C[C@@]2(C)[C@@H]3C[C@@H](O)[C@H]4[C@H](C)C(=O)C=C[C@@]45C[C@@]35CC[C@]12C)[C@@H](C)CO` , fold change (FC) reported as 31

###

# Tested on: DLD-1
# Method: Inhibition of proteasome activity in human DLD1 cells expressing 4-ubiquitin luciferase reporter protein assessed increase of luciferase signal at 0.5 uM after 7 hrs relative to control
Please go through the items and note down their fold change (FC).
Answers are plain numbers.

Examples with their reported fold change (FC) follow.
# Smi, Target Desc, fold change (FC)
measured = [
    ("C=C(C(=O)[C@H](OC(C)=O)[C@@H](C)[C@H]1[C@@H](OC(C)=O)C[C@@]2(C)[C@@H]3CC[C@H]4[C@H](C)C(=O)C=C[C@@]45C[C@@]35CC[C@]12C)[C@@H](C)COC(C)=O", "DLD-1", 1.1),
    ("C=C(C(=O)[C@H](O)[C@@H](C)[C@H]1[C@@H](OC(C)=O)C[C@@]2(C)[C@@H]3CC[C@H]4[C@H](C)C(=O)C=C[C@]45C[C@]35CC[C@]12C)[C@@H](C)CO", "DLD-1", 0.9),
]

Entry `C=C(C(=O)[C@H](O)[C@@H](C)[C@H]1[C@@H](OC(C)=O)C[C@@]2(C)[C@@H]3CC[C@H]4[C@H](C)C(=O)C[C@H](O)[C@@]45C[C@@]35CC[C@]12C)[C@@H](C)CO` , fold change (FC) reported as 1.3

###

# Test system: DLD-1
# Method: Inhibition of proteasome activity in human DLD1 cells expressing 4-ubiquitin luciferase reporter protein assessed increase of luciferase signal at 5 uM after 7 hrs relative to control
Measured Metric: fold change (FC)
One number for each entry.

Examples with their reported fold change (FC) follow.
# Compound, Number
records = [
    ("C=C(C(=O)[C@H](O)[C@@H](C)[C@H]1[C@@H](OC(C)=O)C[C@@]2(C)[C@@H]3CC[C@H]4[C@H](C)C(=O)C=C[C@@]45C[C@@]35CC[C@]12C)C(C)C", 65),
    ("C=C(C(=O)[C@H](OC(C)=O)[C@@H](C)[C@H]1[C@@H](OC(C)=O)C[C@@]2(C)[C@@H]3CC[C@H]4[C@H](C)C(=O)CC[C@@]45C[C@@]35CC[C@]12C)[C@@H](C)CO", 45),
    ("CC(=O)O[C@H]1C[C@@]2(C)[C@@H]3CC[C@H]4[C@H](C)C(=O)C=C[C@@]45C[C@@]35CC[C@]2(C)[C@H]1[C@H](C)[C@@H](OC(C)=O)C(=O)C=C(C)C", 34),
    ("C=C(C(=O)[C@H](OC(C)=O)[C@@H](C)[C@H]1[C@@H](OC(C)=O)C[C@@]2(C)[C@@H]3CC[C@H]4[C@H](C)C(=O)[C@H](O)[C@H]5C[C@]54C3=CC[C@]12C)[C@@H](C)CO", 1.9),
    ("C=C(C(=O)[C@H](O)[C@@H](C)[C@H]1[C@@H](OC(C)=O)C[C@@]2(C)[C@@H]3CC[C@H]4[C@H](C)C(=O)C=C[C@]45C[C@]35CC[C@]12C)[C@@H](C)CO", 9.1),
    ("C=C(C(=O)[C@H](O)[C@@H](C)[C@H]1[C@@H](OC(C)=O)C[C@@]2(C)[C@@H]3CC[C@H]4[C@H](C)C(=O)CC[C@@]45C[C@@]35CC[C@]12C)[C@@H](C)CO", 10),
    ("C=C(C(=O)[C@H](OC(C)=O)[C@@H](C)[C@H]1[C@@H](OC(C)=O)C[C@@]2(C)[C@@H]3CC[C@H]4[C@H](C)C(=O)C=C[C@@]45C[C@@]35CC[C@]12C)[C@H](C)CO", 71),
]

Shift focus to the following entry.
Entry C=C(C(=O)C[C@@H](C)[C@H]1[C@@H](OC(C)=O)C[C@@]2(C)[C@@H]3CC[C@H]4[C@](C)(C(=O)O)[C@@H](O)CC[C@@]45C[C@@]35CC[C@]12C)C(C)CO (stereo partly drawn) , fold change (FC) reported as 1.3
